# Test system: scanMAX kinase panel (EGFR mutant, ERBB2, ERBB4)
# PROTOCOL: DiscoverX (eurofin) KINOMEscan (scanMAX platform) kinase profiling
# Assay type: binding
# PROTOCOL CONDITIONS: EGFR(L858R.T790M)
// % inhibition of scanMAX Kinase profiling lookup, one value per entry
Respond with a number, then the unit of measure.

[[record]]
structure = "C=CC(=O)Nc1cc(Nc2cc(N3OCC[C@@H]3c3ccccc3)ncn2)c(OC)cc1N1CCN(C)CC1"
result = "85%"

[[record]]
structure = "C=CC(=O)Nc1cc(Nc2cc(N3OCC[C@@H]3c3ccccc3)ncn2)c(OC)cc1N(C)CCN(C)C"
result = "96%"

[[record]]
structure = "C=CC(=O)Nc1cc(Nc2cc(N3OCC[C@@H]3c3cc(F)cc(F)c3)ncn2)c(OC)cc1N1CCC(N2C[C@H]3C[C@@H]2CO3)CC1"
result = "98%"


Looking for the measured % inhibition of scanMAX Kinase profiling of `C=CC(=O)Nc1cc(Nc2cc(N3OCC[C@@H]3c3cc(F)cc(F)c3)ncn2)c(OC)cc1N1CCC(N2C[C@@H]3C[C@H]2CO3)CC1` , can you help?
98%

Looking for the measured % inhibition of scanMAX Kinase profiling of `C=CC(=O)Nc1cc(Nc2cc(N3OCC[C@@H]3c3ccccc3)ncn2)c(OC)cc1N1CCC(N2CCN(C)CC2)CC1` , can you help?
96%

Looking for the measured % inhibition of scanMAX Kinase profiling of `C=CC(=O)Nc1cc(Nc2cc(N3OCC[C@@H]3c3cc(F)cc(F)c3)ncn2)c(OC)cc1N1CCC(N2CCN(CC)CC2)CC1` , can you help?
98%

Looking for the measured % inhibition of scanMAX Kinase profiling of `C=CC(=O)Nc1cc(Nc2cc(N3OCC[C@@H]3c3cc(F)cc(F)c3)ncn2)c(OC)cc1N1CCC(N2CCOCC2)CC1` , can you help?
97%

Looking for the measured % inhibition of scanMAX Kinase profiling of `C=CC(=O)Nc1cc(Nc2cc(N3OCC[C@@H]3c3cc(F)cc(F)c3)ncn2)c(OC)cc1N1CCC(N2CCN(C3CC3)CC2)CC1` , can you help?
96%
